Cited source: ChEMBL document CHEMBL3734743

# MEASUREMENT TARGET: C3a anaphylatoxin chemotactic receptor (Homo sapiens) (UniProt Q16581)
# Sequence (Q16581 whole entry): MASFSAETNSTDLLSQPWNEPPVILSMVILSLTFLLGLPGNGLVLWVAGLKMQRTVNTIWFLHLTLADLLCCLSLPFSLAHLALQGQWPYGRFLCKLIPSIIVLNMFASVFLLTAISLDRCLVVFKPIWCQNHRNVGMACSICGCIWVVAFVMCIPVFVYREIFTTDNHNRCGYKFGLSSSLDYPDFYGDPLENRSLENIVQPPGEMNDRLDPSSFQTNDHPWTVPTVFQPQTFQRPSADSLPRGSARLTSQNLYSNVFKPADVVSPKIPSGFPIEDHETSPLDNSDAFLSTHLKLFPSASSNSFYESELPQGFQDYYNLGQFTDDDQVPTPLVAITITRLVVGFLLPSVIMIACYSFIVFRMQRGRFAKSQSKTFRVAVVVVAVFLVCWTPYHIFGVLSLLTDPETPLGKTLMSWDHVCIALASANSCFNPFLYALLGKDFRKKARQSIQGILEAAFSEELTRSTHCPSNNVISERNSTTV
# ASSAY COMMENT: Agonist activity at C3aR in human MDM cells assessed as inhibition of C3a-induced Ca2+ response at 10 uM measured for 60 secs by fluorescence assay relative to 100 nM C3a
# Type: functional, cell-based
PROPERTY NAME: inhibition (%)
Numbers only, in %.

Cc1oc([C@H](CC(C)C)NC(=O)C2CCCCC2)nc1C(=O)N[C@@H](CCCNC(=N)N)C(=O)O 107

Record inhibition per entry; entries follow.
1. COc1ccc(CCC(=O)N[C@@H](CC(C)C)c2nc(C(=O)N[C@@H](CCCNC(=N)N)C(=O)O)c(C)o2)cc1
2. COc1ccccc1CC(=O)N[C@@H](CC(C)C)c1nc(C(=O)N[C@@H](CCCNC(=N)N)C(=O)O)c(C)o1
3. Cc1oc([C@H](CC(C)C)NC(=O)c2cc3ccccc3o2)nc1C(=O)N[C@@H](CCCNC(=N)N)C(=O)O

[44, 81, 84]

---

# MEASUREMENT TARGET: C3a anaphylatoxin chemotactic receptor (Homo sapiens) (UniProt Q16581)
# ASSAY COMMENT: Agonist activity at C3aR in human MDM cells assessed as inhibition of C3a-induced Ca2+ response at 10 uM measured for 60 secs by fluorescence assay relative to 100 nM C3a
# Type: functional, cell-based
Task for the reader: assign each of the following compounds its reported inhibition.
Give bare numbers, in %.

Examples from the recorded data:
Cc1oc([C@H](CC(C)C)NC(=O)c2ccc(Oc3ccccc3)cc2)nc1C(=O)N[C@@H](CCCNC(=N)N)C(=O)O 68
Cc1oc([C@H](CC(C)C)NC(=O)c2cc3ccccc3[nH]2)nc1C(=O)N[C@@H](CCCNC(=N)N)C(=O)O 56
COc1ccc(CC(=O)N[C@@H](CC(C)C)c2nc(C(=O)N[C@@H](CCCNC(=N)N)C(=O)O)c(C)o2)cc1OC 67

The record that follows has no inhibition shown yet.
Quick one: give measured inhibition for `Cc1oc([C@H](CC(C)C)NC(=O)c2ccncc2)nc1C(=O)N[C@@H](CCCNC(=N)N)C(=O)O`
109

---

Task for the reader: assign each of the following compounds its reported pEC50.
# MEASUREMENT TARGET: UniProt Q16581
# ASSAY COMMENT: Agonist activity at C3aR in human MDM cells assessed as inhibition of C3a-induced Ca2+ response measured for 60 secs by fluorescence assay
Answers are plain numbers, as −log10 of the molar value.

Examples from the recorded data:
CC[C@H](C)[C@H](NC(=O)c1ccc2ccccc2n1)c1nc(C(=O)N[C@@H](CCCNC(=N)N)C(=O)O)co1 7.39
Cc1oc([C@H](CC(C)C)NC(=O)OC(C)(C)C)nc1C(=O)N[C@@H](CCCNC(=N)N)C(=O)O 7.35
CC(C)C[C@H](NC(=O)OC(C)(C)C)c1nc(C(=O)N[C@@H](CCCNC(=N)N)C(=O)O)co1 7.72

The record that follows has no pEC50 shown yet.
Quick one: give measured pEC50 for `CC[C@H](C)[C@H](NC(=O)C1(C(C)C)C=CCC=C1)c1nc(C(=O)N[C@@H](CCCNC(=N)N)C(=O)O)co1`
6.13

---

# MEASUREMENT TARGET: UniProt:Q16581
# ASSAY COMMENT: Displacement of [125I]-C3a from C3aR in human MDM cells at 20 uM after 60 mins by microbeta scintillation counting analysis
# Type: cell-based
Task for the reader: assign each of the following molecules its reported inhibition.

Examples from the recorded data:
COc1ccc(CC(=O)N[C@@H](CC(C)C)c2nc(C(=O)N[C@@H](CCCNC(=N)N)C(=O)O)c(C)o2)cc1 40%
Cc1oc([C@H](CC(C)C)NC(=O)c2ccc(Oc3ccccc3)cc2)nc1C(=O)N[C@@H](CCCNC(=N)N)C(=O)O 32%
COc1ccccc1CC(=O)N[C@@H](CC(C)C)c1nc(C(=O)N[C@@H](CCCNC(=N)N)C(=O)O)c(C)o1 43%
COc1cccc(CC(=O)N[C@@H](CC(C)C)c2nc(C(=O)N[C@@H](CCCNC(=N)N)C(=O)O)c(C)o2)c1 41%
Cc1oc([C@H](CC(C)C)NC(=O)c2ccc(/N=N/c3ccccc3)cc2)nc1C(=O)N[C@@H](CCCNC(=N)N)C(=O)O 49%

Record inhibition per entry; entries follow.
1. Cc1oc([C@H](CC(C)C)NC(=O)CC(C)(C)C)nc1C(=O)N[C@@H](CCCNC(=N)N)C(=O)O
2. Cc1oc([C@H](CC(C)C)NC(=O)c2cc3ccccc3o2)nc1C(=O)N[C@@H](CCCNC(=N)N)C(=O)O
3. Cc1oc([C@H](CC(C)C)NC(=O)c2cccnc2)nc1C(=O)N[C@@H](CCCNC(=N)N)C(=O)O
4. Cc1oc([C@H](CC(C)C)NC(=O)c2ccc(C(F)(F)F)cc2)nc1C(=O)N[C@@H](CCCNC(=N)N)C(=O)O
5. Cc1oc([C@H](CC(C)C)NC(=O)S(=O)(=O)c2ccccc2)nc1C(=O)N[C@@H](CCCNC(=N)N)C(=O)O
6. Cc1oc([C@H](CC(C)C)NC(=O)c2cc3ccccc3[nH]2)nc1C(=O)N[C@@H](CCCNC(=N)N)C(=O)O
7. COc1ccc(CC(=O)N[C@@H](CC(C)C)c2nc(C(=O)N[C@@H](CCCNC(=N)N)C(=O)O)c(C)o2)cc1OC

1: 44%; 2: 19%; 3: 29%; 4: 61%; 5: 44%; 6: 26%; 7: 65%
